- assayed_target: T1, Vacuolar Protein Sorting-Associated 26A (AtVPS26A) (Arabidopsis thaliana, UniProt Q9FJD0 1-302)
- T1 chain: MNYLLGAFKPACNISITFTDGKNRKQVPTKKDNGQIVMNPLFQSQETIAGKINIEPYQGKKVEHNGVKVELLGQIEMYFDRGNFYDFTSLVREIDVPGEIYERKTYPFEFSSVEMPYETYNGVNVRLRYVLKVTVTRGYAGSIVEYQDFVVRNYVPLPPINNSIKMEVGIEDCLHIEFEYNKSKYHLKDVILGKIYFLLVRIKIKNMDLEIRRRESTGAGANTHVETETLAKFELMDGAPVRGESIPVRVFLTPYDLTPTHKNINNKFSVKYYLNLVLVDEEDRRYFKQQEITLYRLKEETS
- method_summary: ITC; phosphorylated S428, S431, S435
Where no end group is shown, it is not given here. [ ]: non-standard residue; d: D form. pS = N[C@@H](COP(=O)(O)O)C(=O)O
measured_quantity: Kd (nM)
One number for each entry, in nM.

According to the records, this binder GGGAMHKEGY[pS]FS[pS]PRL[pS]SVQGSDDPFYQEHMSKSSRCSSPG (N-terminal GGG added to the peptide; AtRGS1 C-terminal tail, Arabidopsis thaliana, UniProt Q8H1F2, residues A421-G459; Purity 87%; also called RGS1 pC-tail; ptail; source: synthetic peptide (UNC Peptide Core Facility)) [AtRGS1 pSer C tail peptide (A421-G459, phosphorylated at S428, S431, S435)] displays Kd of 71
